- TGT: Cytochrome P450 2C19 (Homo sapiens, UniProt P33261)
- Sequence (P33261 whole entry): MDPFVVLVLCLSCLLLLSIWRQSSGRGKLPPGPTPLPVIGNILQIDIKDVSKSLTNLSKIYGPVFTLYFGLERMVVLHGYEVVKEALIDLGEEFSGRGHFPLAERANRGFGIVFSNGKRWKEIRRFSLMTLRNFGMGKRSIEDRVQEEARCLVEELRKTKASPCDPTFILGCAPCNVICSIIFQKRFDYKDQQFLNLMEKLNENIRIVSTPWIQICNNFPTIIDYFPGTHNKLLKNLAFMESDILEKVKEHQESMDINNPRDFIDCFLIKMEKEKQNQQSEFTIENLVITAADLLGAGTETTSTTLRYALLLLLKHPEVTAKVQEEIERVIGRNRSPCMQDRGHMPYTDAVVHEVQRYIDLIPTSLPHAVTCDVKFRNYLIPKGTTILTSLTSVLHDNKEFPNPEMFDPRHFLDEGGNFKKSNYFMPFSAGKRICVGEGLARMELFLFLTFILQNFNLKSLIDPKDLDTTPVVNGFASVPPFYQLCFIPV
- ASSAY INFO: Cytochrome panel assay with activity outcomes. Panel member name: p450-cyp2c19 Compounds with AC50 equal or less than 10 uM are considered active
- Type: functional
- CONDITIONS: read-out: AC50
READOUT KIND: AC50

C[C@](O)(c1ccccc1)c1nccc2ccccc12 :: 3.98 µM (inconclusive)
CC(C)c1cccc2nc3c(c(C(C)(C)C)c12)Cn1c-3cccc1=O :: 25.1 µM (inconclusive)
C=CCNC(=O)c1ccc2nc(-c3ccccc3)c(-c3ccccc3)nc2c1 :: 39.8 µM (inconclusive)
Cn1ccnc1SCC(=O)Nc1sccc1C#N :: 7.08 µM (inconclusive)

Quick batch: AC50 for everything below.
1. COC(=O)c1cc2n(n1)CCN(Cc1ccccc1F)C2=O
2. Cc1cnnn1-c1ccc(C(=O)CCl)cc1
3. O=C(NCCCN1CCOCC1)C1COc2ccccc2O1 (configuration not stated)
4. C=C(CC1([C@@H](NP(=O)(c2ccccc2)c2ccccc2)[C@H]2C[C@@H]2CCCC)CC1)c1ccccc1
5. CC(/C=C1\N=C(SCc2ccccc2Cl)SC1=O)=C\c1ccccc1

a:
1. 5.01 µM (inconclusive)
2. 39.8 µM (inconclusive)
3. 17.8 µM (inconclusive)
4. 7.94 µM (inconclusive)
5. 7.08 µM (inconclusive)

Quick batch: AC50 for everything below.
1. Cc1ccc2[nH]c(C3CCCN(C(S)=Nc4ccccc4C)C3)nc2c1 (configuration not stated)
2. COc1ccc2[nH]cc(C=O)c2c1
3. Cc1cccc(C)c1NC(=O)CSc1nc(C)c(CC(=O)c2ccc(Br)cc2)c(C)c1C#N

a:
["1.41 µM (inconclusive)", "28.2 µM (inconclusive)", "35.5 µM (inconclusive)"]

---

- TGT: UniProt:P00735
- ASSAY INFO: thrombin inhibition, dose response, biochemical, fluorescence polarization, uHTS hits (AID 602369)
- Assay type: functional
The source made the active and inactive calls.
Please go through the items and note down their IC50.

Example molecules with recorded IC50:
COc1ccc2nc3c(O)n(/N=C/c4ccc(OC)c(CN5CCCC5)c4)c(C)nc-3c2c1 :: 87.9 µM (active)
Cc1[nH]c2ccccc2c1/C=C/C(=O)c1ccncc1 :: 48.4 µM (active)
O=C(CSc1nc(O)c2c(C(F)(F)F)cc(-c3cccs3)nc2n1)Nc1ccc(F)c(F)c1 :: 79.4 µM (active)

Next item in the queue.
q: Please report the recorded IC50 for `O=Cc1cn(-c2ccccc2)nc1-c1cc2cc(O)ccc2oc1=O` .
a: 35.5 µM (active)

---

- Test system: Streptococcus
- ASSAY INFO: Group A Streptococcus viability loss, dose response, counter-screen for streptokinase expression inhibitor project, luminescence, BacTiterGlo (AID 1915);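 also: potency for reduction of bacterial viability or growth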
- Type: functional, organism-based
Activity calls are given as the source filed them.
READOUT KIND: EC50

Example molecules with recorded EC50:
N#Cc1c(N)nc(Sc2ccc(Cl)cc2)c(C#N)c1-c1ccccc1Cl :: > 150 µM (not active)
COC(=O)c1c(NC(NC(=O)C(C)(C)C)C(Cl)(Cl)Cl)sc2c1CCC2 (stereo not given) :: 20.3 µM (active)
CCCc1nc2oc3c(Cl)ncnc3c2c2c1CCCC2 :: > 150 µM (not active)
CCCCn1c(O)c(N=NC(=O)c2ccccc2NS(=O)(=O)c2cccs2)c2ccccc21 :: 68.3 µM (active)
Clc1ccc(-c2nnnn2-c2ccc(Cl)c(Cl)c2)cc1Cl :: > 150 µM (not active)
Oc1cccc(NC(=S)N=Nc2c(O)[nH]c3ccc(Br)cc23)c1 :: 4.54 µM (active)
N#CC1=C(c2ccccc2)/C(=C/c2ccccc2)OC1=O :: > 150 µM (not active)
CCOC(=O)c1ccc(NC(S)=NN)cc1 :: > 150 µM (not active)

Quick batch: EC50 for everything below.
1. COC(=O)c1c(NC(=O)COc2ccc(Cl)cc2)sc2c1CC(C)(C)NC2(C)C
2. OC(COc1cccc2ccccc12)CN1CCN(c2ccc(Cl)cc2)CC1 (stereo not given)

a:
> 150 µM (not active)
34.3 µM (active)

---

- TGT: Type-1 angiotensin II receptor (Homo sapiens)
- Sequence (P30556 whole entry): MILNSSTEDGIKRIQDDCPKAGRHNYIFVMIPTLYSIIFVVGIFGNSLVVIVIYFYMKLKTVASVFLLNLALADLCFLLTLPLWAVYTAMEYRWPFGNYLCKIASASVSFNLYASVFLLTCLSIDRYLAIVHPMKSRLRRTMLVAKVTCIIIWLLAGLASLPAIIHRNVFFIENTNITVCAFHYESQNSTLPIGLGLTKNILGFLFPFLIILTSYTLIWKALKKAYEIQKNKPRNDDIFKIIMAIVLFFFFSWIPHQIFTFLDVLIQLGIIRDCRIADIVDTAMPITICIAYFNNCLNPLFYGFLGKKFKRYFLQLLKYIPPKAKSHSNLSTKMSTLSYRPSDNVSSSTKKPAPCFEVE
- ASSAY INFO: AT1 receptor antagonists, dose response, selectivity assay for APJ receptor antagonist project, cell-based, uHTS hits (AID 463214);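 also: antagonist potency against angiotensin II stimulated AT1 response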
- Format: functional
Calls of active or inactive are those of the source.
Please go through the items and note down their IC50.

Quick batch: IC50 for everything below.
1. Cc1c(Nc2cc(Cl)c3nonc3c2[N+](=O)[O-])c(=O)n(-c2ccccc2)n1C
2. Cc1ccc(S(=O)(=O)Nc2cccc3cccnc23)c([N+](=O)[O-])c1
3. CC(C)N1CCc2c(sc(NC(=O)c3cc(-c4cccs4)nc4ccccc34)c2C(N)=O)C1
4. Cc1ccc(C(=O)CNc2cc(C)ccc2C)cc1
5. CCCCS(=O)(=O)/C=C\C=C/S(=O)(=O)CCCC

a:
1. 2.33 µM (active)
2. 8.21 µM (active)
3. > 40 µM (not active)
4. 9.85 µM (active)
5. 3.67 µM (active)

q: Hello, I am looking for reported IC50 with Type-1 angiotensin II receptor (Homo sapiens) for `Cc1cc(C)nc(NNS(=O)(=O)c2ccc(F)c(Cl)c2)n1` . Could you help?
a: 23.9 µM (not active)

---

Please go through the items and note down their IC50.
- TGT: Glucose-6-phosphate 1-dehydrogenase (Homo sapiens, UniProt P11413)
- Sequence (P11413 whole entry): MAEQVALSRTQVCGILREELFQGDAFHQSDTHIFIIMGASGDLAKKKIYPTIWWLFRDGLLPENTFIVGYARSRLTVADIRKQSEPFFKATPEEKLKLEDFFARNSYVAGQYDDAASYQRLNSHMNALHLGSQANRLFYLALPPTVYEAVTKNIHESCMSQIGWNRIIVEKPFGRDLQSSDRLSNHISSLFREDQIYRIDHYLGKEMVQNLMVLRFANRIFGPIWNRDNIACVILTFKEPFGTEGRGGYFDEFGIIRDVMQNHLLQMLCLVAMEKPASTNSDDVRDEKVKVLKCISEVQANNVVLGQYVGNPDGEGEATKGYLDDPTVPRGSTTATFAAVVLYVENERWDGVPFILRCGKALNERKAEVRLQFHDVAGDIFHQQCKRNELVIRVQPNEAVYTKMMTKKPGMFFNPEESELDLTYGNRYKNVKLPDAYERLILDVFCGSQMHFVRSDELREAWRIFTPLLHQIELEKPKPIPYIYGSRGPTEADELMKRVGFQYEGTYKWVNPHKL
- ASSAY INFO: human G6PD enzyme inhibitors, dose response, selectivity assay for P. falciparum G6PD inhibitor project, biochemical, fluorescence (AID 504792)
- Type: functional
Active and inactive are the calls of the source.

Example compounds with recorded IC50:
Cc1nnc(Sc2cc(NCCO)c([N+](=O)[O-])c3nonc23)s1 :: > 80 µM (inactive)
CC(=O)Nc1ccc2c(c1)Cc1cc(N3C(=O)C=CC3=O)ccc1-2 :: > 80 µM (inactive)
COc1ccc(OCc2nnc3n2N=C(c2ccccc2)C(CC(=O)O)S3)cc1 (stereo unspecified) :: > 80 µM (inactive)
CC1=CC(C)(C)Nc2ccc(OC(=O)CN3C(=O)c4cccc5cccc(c45)C3=O)cc21 :: 64.2 µM (inactive)
Cc1c(C(=O)N(Cc2ccccc2Cl)C2CCS(=O)(=O)C2)oc2ccccc12 (stereo unspecified) :: 40.3 µM (inactive)

Next item in the queue.
q: Please report the recorded IC50 for `COc1cc(N)c2ncccc2c1Cl` .
a: 69.4 µM (inactive)

---

Please go through the items and note down their AC50.
- TGT: FAD-linked sulfhydryl oxidase ALR (Homo sapiens)
- Sequence (P55789 whole entry): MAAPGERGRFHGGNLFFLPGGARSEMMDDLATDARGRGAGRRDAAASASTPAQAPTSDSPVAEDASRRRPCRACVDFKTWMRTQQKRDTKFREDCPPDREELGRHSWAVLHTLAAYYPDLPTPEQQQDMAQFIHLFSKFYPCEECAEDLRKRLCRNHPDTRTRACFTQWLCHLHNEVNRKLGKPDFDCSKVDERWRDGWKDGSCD
- ASSAY INFO: inhibitors of human ALR sulfhydryl oxidase, dose response, biochemical, H2O2 detection, luminescence, cherry-pick (AID 493248)
Calls of active or inactive are those of the source.

Example compounds with recorded AC50:
O=C(C1CCCC1)N1CCN=C1SCc1cccc([N+](=O)[O-])c1 :: 32 nM (active)
Nc1ccc(N2CCN(c3ccccc3)CC2)c(F)c1 :: 13200 nM (active)
C/C(=N\NC(=O)CN1CCN(S(=O)(=O)c2ccc(C)cc2)CC1)c1ccc(O)cc1 :: 2920 nM (active)
CSCC[C@H](NC(=O)N1CCn2c1nc1ccccc12)C(=O)N1CCCCC1 :: 4310 nM (active)
CC1CN(C2CCCCC2)c2nc3c(c(=O)[nH]c(=O)n3C)n2C1 (stereo not drawn) :: 1810 nM (active)
c1ccc2[nH]c(SCc3cn4cccnc4n3)nc2c1 :: 194 nM (active)

Quick batch: AC50 for everything below.
1. Cn1cccc1/C=N/n1c(S)nnc1-c1ccc(Cl)cc1Cl
2. Cc1cc(C(=O)NNc2ccccc2F)no1

a:
1: 1070 nM (active); 2: 5700 nM (active)

---

- TGT: Sentrin-specific protease 8 (Homo sapiens, UniProt Q96LD8)
- Sequence (Q96LD8 whole entry): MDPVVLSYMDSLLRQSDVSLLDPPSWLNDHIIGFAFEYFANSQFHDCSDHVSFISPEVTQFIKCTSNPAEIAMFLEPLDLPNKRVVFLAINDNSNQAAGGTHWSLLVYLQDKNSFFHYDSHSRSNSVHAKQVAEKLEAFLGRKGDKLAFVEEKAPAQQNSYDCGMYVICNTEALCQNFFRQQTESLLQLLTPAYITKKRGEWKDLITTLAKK
- Format: functional
Calls of active or inactive are those of the source.
In this exercise, the only acceptable responses are 1 (yes) (active), 0 (no) (inactive)

Before answering, review these 4 worked examples.
CCN(CC)c1ccc(/C=N/NC(=O)c2ccoc2C)c(O)c1 :: 1 (yes)
Cc1ccc(Nc2ncnc3c2oc2ccccc23)cc1 :: 0 (no)
Cc1cccc(NCc2nc3ccccc3n2Cc2ccccc2)c1 :: 1 (yes)
CCOC(=O)c1cc2ccc3ccccc3c2s1 :: 0 (no)

q: // outcome(item) with item = `CCCOC(=O)c1ccc(NC(=O)/C=C/c2cccs2)cc1`
a: 1 (yes)

---

- ASSAY INFO: Luminescence Cell-Based Dose Response HTS to Identify Activators of Luciferase Translation or Activity in H4 […] Cells. [Related pubchem assays: 1829 (Project Summary), 1814 (Primary HTS)]
- Format: functional
Active and inactive are the calls of the source.
READOUT KIND: EC50

O=C(Nc1ccc(S(=O)(=O)N2CCOCC2)cc1)c1ccc([N+](=O)[O-])o1 :: > 120 µM (not active)
O=C(Nc1c(C(=O)Nc2ccc3c(c2)OCCO3)cnn1-c1ccccc1Cl)c1ccco1 :: 20.5 µM (active)
N=C(NOC(=O)Cc1cccs1)c1ccccc1 :: 11.1 µM (active)
C/N=C(\c1ccc(C)cc1)n1c(=S)nc(-c2ccc(C)cc2)n(C)c1=S :: 15.4 µM (active)

Next item in the queue.
q: Please report the recorded EC50 for `Cc1ccc(/C=N/n2cc(-c3ccccc3)nc2S)s1` .
a: 10.4 µM (active)
